Item-by-item account of Anti-PSMA Fab signal in the presence of PSMA
# Measured target: T1, Anti-PSMA Fab (SEQ ID NOs: 19, 20)
# T1 construct: also called 006 PSMA Fab
# Assay comment: phage binding ELISA; PSMA Fab on plate pre-incubated with PSMA antigen as competitor, anti-M13 HRP detection;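 further: crude clonal phage supernatants added without washing to wells preincubated with PSMA in blocking buffer, compared with wells receiving blocking buffer only, then bound phage detected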
Where no end group is shown, it is not given here.
Respond numerically, and do not add a unit to the figure.

Request: May I ask what Anti-PSMA Fab signal in the presence of PSMA has been recorded for MEMWCRPAWMCAHS (cysteine pairing not given here; also: displayed on phage, fused to pIII) [Phage-2257] ?
Response: 0.0767

Request: May I ask what Anti-PSMA Fab signal in the presence of PSMA has been recorded for PVNWCKPPWMCEMW [Phage-2256] ?
Response: 0.087

Request: May I ask what Anti-PSMA Fab signal in the presence of PSMA has been recorded for ALKWCIPDWMCSQP [Phage-2264] ?
Response: 0.0749

Request: May I ask what Anti-PSMA Fab signal in the presence of PSMA has been recorded for VELLCKPPWMCSGL [Phage-2255] ?
Response: 0.0931

Request: May I ask what Anti-PSMA Fab signal in the presence of PSMA has been recorded for DMRWCIPAWMCEDR [Phage-2259] ?
Response: 0.0623

Request: May I ask what Anti-PSMA Fab signal in the presence of PSMA has been recorded for PNIWCTPLWMCEGL [Phage-2262] ?
Response: 0.0772

Request: May I ask what Anti-PSMA Fab signal in the presence of PSMA has been recorded for EMHWCIPAWMCPDG [Phage-2266] ?
Response: 0.0572
